Tested on: ATP;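 further: ATP exposure 15 min at 22 °C before imaging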
Experiment: switch fluorescence ratio, 500 uM ATP over buffer (Cy3 cluster intensity, sum of 5 cycles each) (fold (ratio)); higher = stronger signal-on switching upon ATP binding; sequences stand for … in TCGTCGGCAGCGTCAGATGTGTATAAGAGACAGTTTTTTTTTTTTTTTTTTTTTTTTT…TC
Conditions: aptamer strand: ATP DNA aptamer (quencher-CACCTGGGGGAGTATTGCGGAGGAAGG + anchor), 100 nM annealed; ATP concentration: 500 uM
Hi there, I'd appreciate the recorded switch fluorescence ratio for every entry that follows.
One number for each entry.

Here's what some known entries look like.
biosequence: ATGCTGTCTG
switch fluorescence ratio: 1

biosequence: CAGTTTTATC
switch fluorescence ratio: 1.01

biosequence: CGTAACTAGG
switch fluorescence ratio: 1.02

I need switch fluorescence ratio for every entry listed below, if you could help.
1. TGAATTCCAT
2. TCGTGGAGGT
3. TAGTAGAGCT
4. AGGAGCTCTT
5. ACCATGGCTT
6. TAGGAAGTCG
7. ACATTTTGGT
8. ACCTAGGACT

Outgoing:
[0.983, 0.985, 1.01, 0.998, 0.976, 0.995, 0.995, 1.02]

All values here come from the supplement of paper PMC10126150.
